# System: CD2F1 mice, L1210 leukemia ip, survival T/C
# procedure.details: NCI In Vivo Anticancer Drug Screen. Data for tumor model L1210 Leukemia (intraperitoneal) in CD2F1 (CDF1) mice
# conditions: endpoint: mean survival time; dose: 400.0 mg/kg/injection; schedule: Q04DX003 (ip); vehicle: saline with Tween-80; higher = longer survival
Toxic doses and inconclusive results are not listed.
parameter.measured: T/C

// recorded T/C for CC1=NN(c2ccccc2)C(=O)C1N=Nc1ccccc1S(=O)(=O)O (configuration not stated) : 112 % of control

---

# System: CD2F1 mice, L1210 leukemia ip, survival T/C
# procedure.details: NCI In Vivo Anticancer Drug Screen. Data for tumor model L1210 Leukemia (intraperitoneal) in CD2F1 (CDF1) mice
# conditions: endpoint: mean survival time; dose: 400.0 mg/kg/injection; schedule: Q04DX003 (ip); vehicle: saline with Tween-80; higher = longer survival
# Description: The antitumor activity of compounds was measured in mice bearing transplantable tumors. Survival or tumor size were measured and the results are expressed as the measurement made in the treated group (T) divided by the measurement made in the vehicle treated control group (C). The tumor model used in this assay is L1210 Leukemia (intraperitoneal) in CD2F1 (CDF1) mice
Inconclusive results and toxic doses are left out.
Quick reference for T/C among some molecules

Solved cases (6 shown):
>>> measured_result("N#CC(CC(=O)c1ccc(-c2ccccc2)cc1)c1ccccc1 (stereo unspecified)")
"95 % of control"
>>> measured_result("CC(C)c1ccccc1OS(=O)(=O)c1cccc([N+](=O)[O-])c1")
"106 % of control"
>>> measured_result("CC1(C)CC(C)(c2ccc(O)cc2)c2ccccc2O1 (stereo unspecified)")
"90 % of control"
>>> measured_result("COc1ccc(-c2cc(C(=O)O)c3ccc(C)cc3n2)cc1")
"101 % of control"
>>> measured_result("CC(C)(C)C(=O)CC(=O)C(C)(C)C.CC(C)(C)C(=O)CC(=O)C(C)(C)C.CC(C)(C)C(=O)CC(=O)C(C)(C)C.[Dy]")
"94 % of control"
>>> measured_result("CC1(C)C(=O)CCC2(C)C(OC(=O)c3ccc(C(=O)O)cc3)CCCC12 (stereo unspecified)")
"93 % of control"

We now examine a further molecule.
// recorded T/C for O/N=C/c1ccc[nH]1 : 96 % of control

---

# System: CD2F1 mice, L1210 leukemia ip, survival T/C
# procedure.details: NCI In Vivo Anticancer Drug Screen. Data for tumor model L1210 Leukemia (intraperitoneal) in CD2F1 (CDF1) mice
# conditions: endpoint: mean survival time; dose: 400.0 mg/kg/injection; schedule: Q04DX003 (ip); vehicle: saline with Tween-80; higher = longer survival
Inconclusive results and toxic doses are left out.
Quick reference for T/C among some compounds

// recorded T/C for CCOC(=O)CC(=O)c1[nH]c(C)c(C(=O)OCC)c1C : 101 % of control

// recorded T/C for COCC(=O)C(C(C)=O)C(c1ccc2c(c1)OCO2)C(C(C)=O)C(=O)COC (centres undefined) : 96 % of control

// recorded T/C for COc1cccc(C=Nc2ccc(C)cc2)c1O.COc1cccc(C=Nc2ccc(C)cc2)c1O.[Co] : 99 % of control

// recorded T/C for CCCCCC(O)C1CCCCC1C (centres undefined) : 90 % of control

// recorded T/C for CC1(O)CC2C=CC1CC2 (centres undefined) : 95 % of control

// recorded T/C for COc1cccc(/C=N/OCCNC(=O)c2ccc([N+](=O)[O-])cc2)c1 : 101 % of control

// recorded T/C for COC(=O)c1cccc(OC)c1OC : 100 % of control

// recorded T/C for CCC(=O)c1ccccc1N : 97 % of control

// recorded T/C for O=C1c2[nH]c3ccccc3c2CC1N1C(=O)c2ccccc2C1=O (centres undefined) : 91 % of control

Each recorded value in this set is attributed to PubChem BioAssay AID256.
